Measured values drawn from patent US20040186081A1 for this set.

Ki, NAALADase (Homo sapiens, UniProt Q04609), per-entry values.
Give the figure together with its unit, number first.

Give recorded Ki. `O=C(O)c1cc(CS)cc(C(=O)O)c1` 6.5 µM

Give recorded Ki. `O=C(O)c1ccc(C(=O)O)c(Sc2ccccc2C(=O)O)c1` 0.572 µM

Give recorded Ki. `O=C(O)c1cc(OCCS)cc(C(=O)O)c1` 14.5 µM

Give recorded Ki. `O=C(O)c1cc(CP(=O)(O)O)cc(C(=O)O)c1` 3.1 µM

Give recorded Ki. `O=C(O)c1cc(C(=O)O)cc(C(=O)NO)c1` 1 µM

Give recorded Ki. `O=C(O)c1ccc(OCCCSSCCCOc2ccc(C(=O)O)cc2C(=O)O)c(C(=O)O)c1` 3.75 µM

* * *

Molecular target: NAALADase (Homo sapiens)
Sequence (Q04609 whole entry): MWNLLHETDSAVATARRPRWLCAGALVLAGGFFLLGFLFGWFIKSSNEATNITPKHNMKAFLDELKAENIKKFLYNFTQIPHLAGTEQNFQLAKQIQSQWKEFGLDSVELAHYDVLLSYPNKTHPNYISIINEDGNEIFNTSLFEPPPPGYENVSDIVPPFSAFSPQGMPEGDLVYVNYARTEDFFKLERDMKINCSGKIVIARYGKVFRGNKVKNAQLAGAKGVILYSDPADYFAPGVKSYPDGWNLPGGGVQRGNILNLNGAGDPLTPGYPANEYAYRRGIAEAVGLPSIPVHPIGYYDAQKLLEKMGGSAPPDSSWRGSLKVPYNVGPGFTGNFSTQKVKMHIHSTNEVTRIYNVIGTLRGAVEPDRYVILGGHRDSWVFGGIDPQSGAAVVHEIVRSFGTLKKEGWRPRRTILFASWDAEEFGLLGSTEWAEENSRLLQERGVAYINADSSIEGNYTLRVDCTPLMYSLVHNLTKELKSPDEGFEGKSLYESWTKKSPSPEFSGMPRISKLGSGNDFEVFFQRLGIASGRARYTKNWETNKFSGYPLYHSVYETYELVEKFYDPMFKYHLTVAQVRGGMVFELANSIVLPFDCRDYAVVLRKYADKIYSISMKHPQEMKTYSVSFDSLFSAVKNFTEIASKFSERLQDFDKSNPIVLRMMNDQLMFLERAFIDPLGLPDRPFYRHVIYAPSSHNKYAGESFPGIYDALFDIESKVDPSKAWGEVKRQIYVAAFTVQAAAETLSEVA
Assay: In vitro inhibition of NAALADase activity
Format: biochemical
Conditions: read-out: IC50
property: pIC50
Just the number, please; pIC50 means minus log10 of the concentration in mol/L.

Give recorded pIC50. O=C(O)c1cccc(-c2cccc(CC(CCCS)C(=O)O)c2)c1 (stereo not drawn) 8.74

Give recorded pIC50. `O=C(O)c1ccc(COc2cccc(CCS)c2C(=O)O)cc1` 8.40

Give recorded pIC50. CC(=O)c1cccc(OC(CCCS)C(=O)O)c1 (stereo not drawn) 5.54

Give recorded pIC50. O=C(CSCCCC(Cc1cc(OCc2ccccc2)cc(C(=O)O)c1)C(=O)O)NO (stereo not drawn) 5.59

Give recorded pIC50. `CC(C)(C)CCOc1cccc(CCS)c1C(=O)O` 5.59

Give recorded pIC50. O=C(O)c1ccc(Br)c(CS)c1 [4-bromo-3-(mercaptomethyl)-benzoic acid] 5.49

Give recorded pIC50. O=C(CSCCCC(Cc1cc(C(=O)O)ccc1Cl)C(=O)O)NO (stereo not drawn) 4.80

Give recorded pIC50. O=C(O)c1cc(CC(CCCS)C(=O)O)cc(C(=O)O)c1 (stereo not drawn) 8.59

Give recorded pIC50. `O=C(O)c1cccc(COc2ccc(CCS)c(C(=O)O)c2)c1` 7.07

Give recorded pIC50. O=C(O)c1cccc(CC(CCCS)C(=O)O)c1Cl (stereo not drawn) 5.92

Give recorded pIC50. `O=C(CSCCc1cccc(-c2cccc(C(=O)O)c2)c1C(=O)O)NO` 6.59

Give recorded pIC50. O=C(NCc1ccccc1)c1cccc(CC(CCCS)C(=O)O)c1 (stereo not drawn) 5.95

Give recorded pIC50. NC(=O)c1ccccc1CC(CCCS)C(=O)O (stereo not drawn) 5.40

Give recorded pIC50. O=C(O)c1ccc(F)c(OC(CCCS)C(=O)O)c1 (stereo not drawn) 6.40

Give recorded pIC50. O=C(O)c1cc(CC(CCCS)C(=O)O)cc(Oc2ccccc2)c1 (stereo not drawn) 8.30

Give recorded pIC50. O=C(CSCCCC(Cc1cccc(C(=O)O)c1)C(=O)O)NO (stereo not drawn) 6.42

Give recorded pIC50. CC(C)(C)c1cc(CC(C(=O)O)C(=O)NO)cc(C(=O)O)c1 (stereo not drawn) 4.92

Give recorded pIC50. O=C(CC(Cc1cccc(C(=O)O)c1)C(=O)O)NO (stereo not drawn) 6.16

Give recorded pIC50. O=C(O)c1cccc(CCS)c1 [3-(2-mercaptoethyl)-benzoic acid] 5.22

Give recorded pIC50. `O=C(CCc1cccc(OCc2cccc(C(=O)O)c2)c1)NO` 4.03

Give recorded pIC50. O=C(O)c1c(F)c(F)c(CC(CCCS)C(=O)O)c(F)c1F (stereo not drawn) 6.18

Give recorded pIC50. O=C(CSCC(Cc1cccc(C(=O)O)c1)C(=O)O)NO (stereo not drawn) 5.51

Give recorded pIC50. `O=C(CSCc1ccc(OCc2ccc(C(=O)O)cc2)c(C(=O)O)c1)NO` 5.88

Give recorded pIC50. O=C(O)c1cccc(CC(CCCSC(C(=O)NO)c2ccccc2)C(=O)O)c1 (stereo not drawn) 5.95

Give recorded pIC50. O=C(O)c1cccc(CC(CNO)C(=O)O)c1 (stereo not drawn) 4.36

Give recorded pIC50. CC(C)(C)c1cc(CC(CC(=O)NO)C(=O)O)cc(C(=O)O)c1 (stereo not drawn) 6.53

Give recorded pIC50. O=C(CSCCC(Cc1cccc(C(=O)O)c1)C(=O)O)NO (stereo not drawn) 5.31

Give recorded pIC50. `O=C(O)c1cccc(-c2ccc(CS)cc2C(=O)O)c1` 7.12

Give recorded pIC50. O=C(O)c1ccccc1Oc1ccc(CC(CCCS)C(=O)O)cc1 (stereo not drawn) 5.44

Give recorded pIC50. O=C(O)c1ccccc1CC(CCCS)C(=O)O (stereo not drawn) 5.77

Give recorded pIC50. O=C(O)c1ccc(OC(CCCS)C(=O)O)cc1 (stereo not drawn) 6.72

Give recorded pIC50. O=C(O)Cc1ccc(OC(CCCS)C(=O)O)cc1 (stereo not drawn) 7.09

Give recorded pIC50. O=C(O)CNC(=O)c1cccc(CC(CCCS)C(=O)O)c1 (stereo not drawn) 6.54

Give recorded pIC50. O=C(CSCCCC(Cc1cc(Br)cc(C(=O)O)c1)C(=O)O)NO (stereo not drawn) 5.61

Give recorded pIC50. `O=C(O)c1cc(O)ccc1CCS` 5.04

Give recorded pIC50. O=C(O)Cc1ccc(CC(CCCS)C(=O)O)cc1 (stereo not drawn) 6.09

Give recorded pIC50. O=C(O)c1cc(CC(CCCS)C(=O)O)cc([N+](=O)[O-])c1 (stereo not drawn) 8.52

Give recorded pIC50. `O=C(CCCOc1cccc(-c2cccc(C(=O)O)c2)c1C(=O)O)NO` 5.04

Give recorded pIC50. O=C(O)c1ccc(Cl)c(CC(CCCS)C(=O)O)c1 (stereo not drawn) 8.68

Give recorded pIC50. O=C(O)C(CCCS)Cc1ccccc1Cl (stereo not drawn) 5.87

Give recorded pIC50. O=C(O)c1ccc(Br)c(CC(CCCS)C(=O)O)c1 (stereo not drawn) 8.48

Give recorded pIC50. O=C(O)c1ccccc1-c1cccc(CC(CCCS)C(=O)O)c1 (stereo not drawn) 6.74

Give recorded pIC50. O=C(O)C(CCCS)Cc1cccc(C(F)(F)F)c1 (stereo not drawn) 5.40

Give recorded pIC50. N#Cc1ccccc1-c1ccc(CC(CCCS)C(=O)O)cc1 (stereo not drawn) 6.50

Give recorded pIC50. `O=C(O)c1cc(OCc2ccccc2)ccc1CCS` 6.42
